Where do these numbers come from? They come from paper PMC2941486.

Assay: Pharmacokinetics after i.v. and oral administration
Format: in vivo, Wistar rats
Settings: Wistar, rat, plasma, iv, 5.97 mg/kg

# compound, half-life, h
records = [
    ("N[C@@H](Cc1ccc(O)c(O)c1)C(=O)O [l-dopa, reference compound]", 1.69),
]

* * *

Molecular target: intestinal peptide transporter I (PepT1) (Rattus norvegicus, UniProt P51574)
Construct: brush-boarder membrane vesicle (BBMV) prepared from rat intestine; from tissue; host or cells: rat intestine, brush-border membrane vesicles made by magnesium precipitation
Sequence (P51574 whole entry): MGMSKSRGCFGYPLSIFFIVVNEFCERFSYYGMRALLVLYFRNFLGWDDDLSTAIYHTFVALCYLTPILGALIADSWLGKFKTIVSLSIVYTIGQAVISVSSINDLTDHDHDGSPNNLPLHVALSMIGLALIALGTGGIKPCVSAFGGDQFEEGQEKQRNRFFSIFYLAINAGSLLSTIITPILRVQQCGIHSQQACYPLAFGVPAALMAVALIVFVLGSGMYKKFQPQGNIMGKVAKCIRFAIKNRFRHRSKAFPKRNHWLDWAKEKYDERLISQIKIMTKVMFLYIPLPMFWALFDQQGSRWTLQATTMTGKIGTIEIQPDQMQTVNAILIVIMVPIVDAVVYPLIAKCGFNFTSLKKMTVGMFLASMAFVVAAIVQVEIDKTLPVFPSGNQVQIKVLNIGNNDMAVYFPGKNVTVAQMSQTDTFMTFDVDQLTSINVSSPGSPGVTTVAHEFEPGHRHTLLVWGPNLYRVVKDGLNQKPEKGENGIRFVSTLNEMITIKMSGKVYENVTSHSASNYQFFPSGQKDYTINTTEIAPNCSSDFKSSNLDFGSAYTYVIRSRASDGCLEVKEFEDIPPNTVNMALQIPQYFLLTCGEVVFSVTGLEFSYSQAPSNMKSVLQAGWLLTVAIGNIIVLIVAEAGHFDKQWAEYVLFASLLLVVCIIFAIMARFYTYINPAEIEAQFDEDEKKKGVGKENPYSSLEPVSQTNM
Test: BBMV uptake of d-phenylglycine-l-dopa with or without competitors
Type: in vitro ADME
Details: pH 7.4, room temperature
Peptide text beside a SMILES is read from it.
quantity kind: Inhibition of BBMV uptake of d-phenylglycine-l-dopa by added competitor

# compound, readout value
measured = [
    ("NCC(=O)N[C@@H](Cc1ccccc1)C(=O)O [l-Gly-l-Phe, reference compound] (H-Gly-Phe-OH)", "significantly inhibited"),
    ("CC1=C(C(=O)O)N2C(=O)[C@@H](NC(=O)[C@H](N)C3=CCC=CC3)[C@H]2SC1", "significantly inhibited"),
    ("NCC(=O)N1CCC[C@H]1C(=O)O [l-Gly-l-Pro] (H-Gly-Pro-OH)", "significantly inhibited"),
]
